- Assay system: T1, PUF4 RNA-binding domain (Saccharomyces cerevisiae, UniProt P25339 537-888)
- T1 sequence: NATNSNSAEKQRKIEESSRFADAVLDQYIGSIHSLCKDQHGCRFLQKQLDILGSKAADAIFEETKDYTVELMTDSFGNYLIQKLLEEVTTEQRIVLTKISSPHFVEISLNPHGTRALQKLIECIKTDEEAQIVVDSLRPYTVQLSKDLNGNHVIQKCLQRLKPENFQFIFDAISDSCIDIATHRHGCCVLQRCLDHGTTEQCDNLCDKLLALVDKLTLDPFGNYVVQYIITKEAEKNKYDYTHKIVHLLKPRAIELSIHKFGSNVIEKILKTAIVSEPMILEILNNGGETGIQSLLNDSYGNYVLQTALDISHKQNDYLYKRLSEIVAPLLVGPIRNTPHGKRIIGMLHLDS
- Test method notes: Mg; RNA-MaP; 20 mM Na-HEPES pH 7.4, 30 mM KOAc, 0.75 mM MgCl2, 0.1% Tween-20, 5% glycerol, 0.1 mg/mL BSA, 2 mM DTT; 25 C; 0.0125-409.6 nM protein
- Reported conditions: tags: N-His6-TEV cleaved; C-SNAP kept, Cy3B-labelled; label: tethered on chip by stalled RNA polymerase
pKd: −log10 of the molar value.
# pKd >= 7 gives yes (1), anything below gives no (0)

Binder | Group label
UCUCUUUGUACGCAGUCUCUU (ssRNA) [Ic_S1_P4E.1_K4.1_C4.1_H4.1_A4.1_[T5C]_[A6G]_[T7C]_F4.1_[T8A]_[A9G]_T4.1] | no (0)
UCUCUUUGUAAUUUUAUCUCUU (ssRNA) [Ib_S1_P5E.1_K5.1_C5.1_H5.1_A5.1_[T5A]_[A7T]_F5.1_T5.1] | yes (1)
UCUCUUUAUGUAUAUUACUUCUCUU (ssRNA) [Id_ii_S1_P4E.2_K4.1_C4.2_[C-2T]_[T-1A]_H4.1_A4.1_F4.1_T4.2_[G10C]] | yes (1)
Ie_S4_P5E.1_K5.1_C5.1_H5.1_A5.1_F5.1_[+9CTC]_T5.1 (ssRNA) RNA: UUUGACAACUGAUCGUUCUUUCUUGUAUUAUUCUCAUUCUUUCUCGAUCAGUUGUCUUU | yes (1)
UCUCUUUGUACGUUGUUCUCUU (ssRNA) [Ic_S1_P5E.1_K5.1_C5.1_H5.1_A5.1_[T5C]_[T6G]_[A7T]_F5.1_[T9G]_[A10T]_T5.1] | yes (1)
ACAAACGCUAUAUAUUAUCACAAAC (ssRNA) [Id_ii_S3_P4E.3_K4.2_C4.2_[C-2G]_[T-1C]_H4.2_A4.1_F4.1_T4.2_[G10T]_[T11C]] | yes (1)
ACAAACACACACUUAUUAACACAAAC (ssRNA) [Id_ii_S3_P5E.4_K5.3_C5.2_[C-2A]_[T-1C]_H5.3_A5.1_F5.1_T5.2_[T11A]_[A12C]] | no (0)
UCUCUUUGUACCCUUUCUCUU (ssRNA) [Ic_S1_P4E.1_K4.1_C4.1_H4.1_A4.1_[T5C]_[A6C]_[T7C]_F4.1_[A9T]_T4.1] | yes (1)
Ic_S2_P5E.1_K5.1_C5.1_H5.1_A5.1_[T5C]_F5.1_[T8A]_[T9A]_T5.1 (ssRNA) RNA: UUUGAUUAAUAUGAUAUCGUUCUUUCUUGUACUAAAAUUCUUUCUCGAUAUCAUAUUAAUCUUU | yes (1)
Ic_S2_P5E.1_K5.1_C5.1_H5.1_A5.1_[T5A]_[A7C]_F5.1_[T8A]_[T9C]_[A10C]_T5.1 (ssRNA) RNA: UUUGAUUAAUAUGAUAUCGUUCUUUCUUGUAAUCACCUUCUUUCUCGAUAUCAUAUUAAUCUUU | no (0)
UCUCUUUGUAUGCUUAUCUCUU (ssRNA) [Ic_S1_P5E.1_K5.1_C5.1_H5.1_A5.1_[T6G]_[A7C]_F5.1_T5.1] | yes (1)
ACAAACGUACACUUAUUACCACAAAC (ssRNA) [Id_ii_S3_P5E.4_K5.3_C5.2_[C-2G]_H5.3_A5.1_F5.1_T5.2_[T11C]_[A12C]] | no (0)
Ib_S2_P4E.1_K4.1_C4.1_H4.1_[T1A]_A4.1_F4.1_[A9T]_T4.1 (ssRNA) RNA: UUUGAUUAAUAUGAUAUCGUUCUUUCUAGUAUAUUUUUCUUUCUCGAUAUCAUAUUAAUCUUU | no (0)
